# assay: NCI Yeast Anticancer Drug Screen. Data for the bub3 strain (AID 167)
# assay_setup: S. cerevisiae bub3 mutant strain, at 50.0 µM (retest, dose inferred, filed as 5.0)
Compounds without any hit were thinned out: in the full panel of roughly 79,000, 15% have a hit. Calls of active or inactive are those of the source. Rule as the data show it: active = growth inhibition above about 70%; inactive = the rest.
Labels: true = active, false = inactive

>>> discrete_label("Cc1ccc(N)c(S)c1")
"true"
>>> discrete_label("CN(C)C[C@H]1CC[C@@H](CN(C)C)C1=O")
"false"
>>> discrete_label("[N-]=N[N+]#I1OC(C(F)(F)F)(C(F)(F)F)c2ccccc21")
"true"
>>> discrete_label("CC[C@@]1(O)C(=O)OCc2c1cc1n(c2=O)Cc2cc3c(N)cccc3nc2-1")
"false"
>>> discrete_label("c1ccc2c(c1)C(=NCCCN1CCCCCC1)c1cccn1-2")
"false"
>>> discrete_label("O=C1Nc2ccc(Cl)c(I)c2C1=O")
"true"
>>> discrete_label("c1ccc2c(c1)-c1nc3ccccc3cc1C2N1CCOCC1 (configuration not stated)")
"false"
>>> discrete_label("CN(C)c1nc2sc3c(c2c(=O)o1)CCCC3")
"true"
>>> discrete_label("Cc1ccc2ccc(O)cc2c1")
"false"
>>> discrete_label("Nc1nc(-c2cccnc2)cc(-c2cc(-c3cccnc3)nc(N)n2)n1")
"false"
>>> discrete_label("C[CH2][Sn]([CH2]C)([O]C(=O)C(OC(C)=O)c1ccccc1)[O]C(=O)C(OC(C)=O)c1ccccc1 (configuration not stated)")
"false"
>>> discrete_label("Cc1ccc2[nH]c3c(C)c4cc[n+](C)cc4c(C)c3c2c1")
"true"
